Overview of recorded Ki for various compounds
- target_or_system: dCTP pyrophosphatase 1 (Homo sapiens, UniProt Q9H773)
- Sequence (Q9H773 whole entry): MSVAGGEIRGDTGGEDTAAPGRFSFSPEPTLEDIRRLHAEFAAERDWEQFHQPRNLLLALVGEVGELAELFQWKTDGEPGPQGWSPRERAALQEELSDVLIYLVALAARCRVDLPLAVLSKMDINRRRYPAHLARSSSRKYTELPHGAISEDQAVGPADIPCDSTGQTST
endpoint: Ki (µM)

compound	measured_number
CC(C)[C@]1(O)[C@H](O)[C@@H]2O[C@]23[C@]2(O[C@H]2CC2C4=C(CC[C@@]23C)C(=O)OC4)[C@@H]1O (some centres not stated) [Triptriolide, 5]	85
CC(C)[C@]12O[C@H]1[C@@H]1O[C@@]13[C@@]1(C)CCC4=C(COC4=O)[C@]1(O)C[C@@H]1O[C@@]13C2=O [5-Hydroxytriptonide, 6]	356

Origin of values: BindingDB's records for doi:10.1002/cbic.201100007
